molecular target: SLAMF9 protein (UniProt Q96A28 19-236, limits assumed); assay: phage clone on SLAMF9 protein
Sequence (Q96A28 19-236 limits assumed): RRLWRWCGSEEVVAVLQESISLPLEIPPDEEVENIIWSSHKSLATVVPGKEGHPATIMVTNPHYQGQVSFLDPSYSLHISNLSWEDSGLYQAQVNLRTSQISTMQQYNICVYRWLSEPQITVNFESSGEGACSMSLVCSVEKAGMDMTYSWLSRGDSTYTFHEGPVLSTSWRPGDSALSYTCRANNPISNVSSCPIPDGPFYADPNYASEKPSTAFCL
Measured Metric: binding result

Binder: ET200-121 (scFv, screened as phage clone; entry is VL-linker-VH-His tag-HA tag) scFv: QSVLTQPPSVSGAPGQRVTVSCTGSRSNIGAGYDVHWYQQLPGTAPKLLIYGNSNRPPGVPDRFSGSKSGTSASLVITGLQAEDAADYYCQSYDNTVRESPYVFGTGTKVTVLGSRGGGGSGGGGSGGGGSLEMAEVQLVQSGAEVKKPGASVKVSCKVSGYTLTELSMHWVRQAPGKGLEWMGGFDPEDGETIYAQKFQGRVTMTEDTSTDTAYMELSSLRSEDTAVYYCATESNLVSRHYYYYGMDVWGQGTTVTVSSTSGQAGQHHHHHHGAYPYDVPDYAS
Measured Metric: binding result
Obs Value: no binding
//
Binder: ET200-103 (scFv, screened as phage clone; entry is VL-linker-VH-His tag-HA tag) scFv: QAVLTQPHSVSESPGKTVTISCTRSSGSIASNYVQWYQQRPGSAPTTVIYEDNQRPSGVPDRFSGSIDSSSNSASLTISGLKTEDEADYYCQSYDSTITVFGGGTKLTVLGSRGGGGSGGGGSGGGGSLEMAQVQLVQSGAEVKKPGSSVKVSCKASGGTFSSYAISWVRQAPGQGLEWMGGIIPIFGTANYAQKFQGRVTITADESTSTAYMELSSLRSEDTAVYYCAGEGYYDSSGYSNGDAFDIWGQGTMVTVSSTSGQAGQHHHHHHGAYPYDVPDYAS
Measured Metric: binding result
Obs Value: no binding
//
Binder: ET200-006 (scFv, screened as phage clone; entry is VL-linker-VH-His tag-HA tag) scFv: SYVLTQPPSVSVAPGKTARITCGGNNIGSKSVHWYQQKPGQAPVVVIHYDSDRPSGIPERFSGSNSGNTATLTISRVEAGDEADYYCQVWDSSSDHPYVFGTGTKVTVLGSRGGGGSGGGGSGGGGSLEMAEVQLVQSGAEVKKPGASVKVSCKASGYTFTTYGISWVRQAPGQGLEWMGWINTYNGHTNYAQKLQGRATMTADTSTNTAYMELRSLRSDDTAVYYCARVIYGSGDYWGQGTLVTVSSTSGQAGQHHHHHHGAYPYDVPDYAS
Measured Metric: binding result
Obs Value: no binding
